assay method text: qHTS assay to identify small molecule agonists of the peroxisome proliferator-activated receptor delta (PPARd) signaling pathway - cell viability counter screen (AID 743211); further: nearly all actives have a fitted effect of over 55% in size; further: potency means the concentration at half of the fitted maximal effect
settings: PPARd-bla HEK293H viability, CellTiter-Glo luminescence, 17 h; series mostly up to 62.6 µM
Results filed as inconclusive are left out. Active and inactive are the calls of the source. The call rests on the fitted dose curve; in most records, active means well fitted cell-killing curve with a large enough effect in the repeat runs; inconclusive means weak or mixed curves; inactive means no such curve, though single readings can be large or run the other way.
measured attribute: Potency

>>> reported_measurement("CC(C)[C@H](C(=O)OC(C#N)c1cccc(Oc2ccccc2)c1)c1ccc(OC(F)F)cc1 (some centres not stated)")
"inactive"
>>> reported_measurement("c1ccc2cc3c(cc2c1)-c1cccc2cccc-3c12")
"inactive"
>>> reported_measurement("CCN")
"inactive"
>>> reported_measurement("CC(C)CCCCCOC(=O)c1ccccc1C(=O)OCCCCCC(C)C")
"inactive"
>>> reported_measurement("Clc1ccc(C(Cl)(Cl)Cl)c(Cl)c1")
"inactive"
>>> reported_measurement("CCCCCCCCCCCCCCCCCCn1cc[n+](C)c1")
"10.9 µM (active)"
>>> reported_measurement("CC(C)(C)C(O)/C(=C\\c1ccc(Cl)cc1Cl)n1cncn1 (configuration not stated)")
"66.5 µM (active)"
>>> reported_measurement("C[C@]12CC[C@H]3[C@@H](CCC4=CC(=O)CC[C@@]43C)[C@@H]1CC[C@@H]2O")
"inactive"
>>> reported_measurement("Fc1cccc(Cl)c1CCl")
"inactive"
>>> reported_measurement("CC(C)OS(C)(=O)=O")
"inactive"
>>> reported_measurement("O=[N+]([O-])c1ccc2ccc3cccc4ccc1c2c34")
"inactive"
>>> reported_measurement("Cc1c(Cl)c(=O)oc2cc(OP(=O)(OCCCl)OCCCl)ccc12")
"inactive"
